- Tested on: MOLT-4 leukemia
- MEASUREMENT_PROTOCOL: NCI tumour cell line growth inhibition, 48 h
Measured TGI accompanies every entry in the list below.

These solved cases illustrate the format of a correct answer.
# MOLECULE, ASSAY_VALUE
rows = [
    ("COc1cc2c3c(n(CCCN=[N+]=[N-])c(=O)c2cc1OC)-c1ccc(F)cc1C3=O", "28.5 µM"),
    ("CC(=O)C1C(=O)C(=O)N(c2ccc([N+](=O)[O-])cc2[N+](=O)[O-])C1=O (stereo not drawn)", "> 100 µM"),
]

Query string: Fill in: TGI of CC(NNC(=O)c1ccncc1)c1ccccc1 (stereo not drawn) is ___
Result string: > 100 µM

Query string: Fill in: TGI of COc1cccc2c1C(=O)c1c(O)c3c(c(O)c1C2=O)C[C@](O)(C(=O)CO)C[C@H]3O[C@@H]1C[C@@H](NC(=O)CCCN(C)C2(c3ccc(F)cc3)CC3CCC2C3)[C@H](O)[C@@H](C)O1 (stereo partly drawn) is ___
Result string: 1.9 µM

Query string: Fill in: TGI of Cc1ncc(C(=O)Nc2ccc(CN3CCN(C)CC3)c(C(F)(F)F)c2)cc1C#Cc1cnc(N)c2ccc(C#N)cc12 is ___
Result string: > 100 µM
